assay.target: T1, human PD-L1 protein with histidine tag (ACROBiosystems #PD-1-H5258) (human, UniProt Q9NZQ7 19-238)
T1 construct: Bought protein; also called His PD-L1; human PD-L1 proteins; not shown: histidine tag
T1 sequence (Q9NZQ7 19-238 limits assumed): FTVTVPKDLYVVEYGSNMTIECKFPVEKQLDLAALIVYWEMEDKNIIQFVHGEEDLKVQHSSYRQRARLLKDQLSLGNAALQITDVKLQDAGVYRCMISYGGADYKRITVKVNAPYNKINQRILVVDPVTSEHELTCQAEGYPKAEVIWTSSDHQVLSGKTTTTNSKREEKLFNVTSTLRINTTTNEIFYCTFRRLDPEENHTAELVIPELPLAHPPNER
measurement.description: BLI (Octet Red96e); His-tagged human PD-L1 captured on HIS1K sensor, antibody at 60 nM; 1:1 fit
Binary call on koff: label 1 from 0.0002 s⁻¹ upward, label 0 beneath that.

Answered cases to consult:
{"columns": ["binder", "assigned.category"],
 "data": [
  ["PR006246 (antibody, human IgG1, V domains shown, The HC entry is used) VH: QVQLVESGGGVVQPGMSLRLSCAASGFDFSSYGMYWVRQAPGKGQEWVASIRYTGTEKHYADSVKGRFTISRDNSKNTLYLEMNSLRVEDTAVYYCAKNRAIFGVIPDDSDIRGQGTMVTVSS", "label 0"],
  ["PR005868 (antibody, human IgG1, V domains shown, The HC entry is used) VH: QVQLVESGGGVVQPGMSLRLSCAASGFTFSSYGMYWVRQAPGKGQEWVAIIWYDGTKKHYADSVKGRFTISRDNSKNTLYLEMNSLRVEDTAVYYCAKNRALFGVIPDASDIRGQGTMVTVSS", "label 1"],
  ["PR006245 (antibody, human IgG1, V domains shown, The HC entry is used) VH: QVQLVESGGGVVQPGMSLRLSCAASGFDFSSYGMYWVRQAPGKGQEWVASIRYTGTEKHYADSVKGRFTISRDNSKNTLYLEMNSLRVEDTAVYYCAKNRAIFGVVPDASDIRGQGTMVTVSS", "label 0"],
  ["PR006247 (antibody, human IgG1, V domains shown, The HC entry is used) VH: QVQLVESGGGVVQPGMSLRLSCAASGFDFSSYGMYWVRQAPGKGQEWVASIRYTGTEKHYADSVKGRFTISRDNSKNTLYLEMNSLRVEDTAVYYCAKNRALFGVIPDASDIRGQGTMVTVSS", "label 1"]
]}

Quick check, koff >= 0.0002 s⁻¹? PR005869 (antibody, human IgG1, V domains shown, The HC entry is used) VH: QVQLVESGGGVVQPGMSLRLSCAASGFTFSSYGMYWVRQAPGKGQEWVAIIWYDGTKKHYADSVKGRFTISRDNSKNTLYLEMNSLRVEDTAVYYCAKNRALFGVIPDDSDIRGQGTMVTVSS
label 1

Quick check, koff >= 0.0002 s⁻¹? PR005878 (antibody, human IgG1, V domains shown, The HC entry is used) VH: QVQLVESGGGVVQPGMSLRLSCAASGFTFSSYGMYWVRQAPGKGQEWVASIRYTGTEKHYADSVKGRFTISRDNSKNTLYLEMNSLRVEDTAVYYCAKNRALFGVIPDDSDIRGQGTMVTVSS
label 0

Quick check, koff >= 0.0002 s⁻¹? PR005875 (antibody, human IgG1, V domains shown, The HC entry is used) VH: QVQLVESGGGVVQPGMSLRLSCAASGFTFSSYGMYWVRQAPGKGQEWVASIRYTGTEKHYADSVKGRFTISRDNSKNTLYLEMNSLRVEDTAVYYCAKNRALFGVIPDASDIRGQGTMVTVSS
label 0

Quick check, koff >= 0.0002 s⁻¹? PR006248 (antibody, human IgG1, V domains shown, The HC entry is used) VH: QVQLVESGGGVVQPGMSLRLSCAASGFDFSSYGMYWVRQAPGKGQEWVASIRYTGTEKHYADSVKGRFTISRDNSKNTLYLEMNSLRVEDTAVYYCAKNRALFGVIPDDSDIRGQGTMVTVSS
label 0
